# Test system: K. pneumoniae K66-45
# assay comment: MIC, multi-resistant clinical isolate
# Format: cell-based, Klebsiella pneumoniae
# test context: RBC EC50 / MIC, K. pneumoniae K66-45
experimental readout: selectivity index (EC50/MIC)

Observe how each entry below is paired with its result.
{"columns": ["smiles code", "experimental readout", "value"],
 "data": [
  ["NCCCCN1C(=O)N(CCCCN)C(=O)C(Cc2cc(C(F)(F)F)cc(C(F)(F)F)c2)(Cc2cc(C(F)(F)F)cc(C(F)(F)F)c2)C1=O", "selectivity index (EC50/MIC)", "(6)"],
  ["CC(C)(C)c1ccc(CC2(Cc3ccc(C(C)(C)C)cc3)C(=O)N(CCCCNC(=N)N)C(=O)N(CCCCNC(=N)N)C2=O)cc1", "selectivity index (EC50/MIC)", "(19)"],
  ["NCCCCN1C(=O)N(CCCCN)C(=O)C(Cc2cc(Br)cc(Br)c2)(Cc2cc(Br)cc(Br)c2)C1=O", "selectivity index (EC50/MIC)", "(5)"],
  ["CC(C)(C)c1ccc(CC2(Cc3ccc(C(C)(C)C)cc3)C(=O)N(CCCCN)C(=O)N(CCCCN)C2=O)cc1", "selectivity index (EC50/MIC)", "(4)"],
  ["NCCCCN1C(=O)N(CCCCN)C(=O)C(Cc2ccc(F)c3ccccc23)(Cc2ccc(F)c3ccccc23)C1=O", "selectivity index (EC50/MIC)", "(5)"]
]}

Recorded selectivity index (EC50/MIC) of N=C(N)NCCCCN1C(=O)N(CCCCNC(=N)N)C(=O)C(Cc2ccc3ccccc3c2)(Cc2ccc3ccccc3c2)C1=O , please. (8)

Could you share which selectivity index (EC50/MIC) value was measured for N=C(N)NCCCCN1C(=O)N(CCCCNC(=N)N)C(=O)C(Cc2cc(Br)cc(Br)c2)(Cc2cc(Br)cc(Br)c2)C1=O ? (14)

###

# System: A. baumanii K12-21
# assay comment: MIC, multi-resistant clinical isolate
# Format: cell-based, Acinetobacter baumannii
# test context: Acinetobacter baumannii, K1221, read-out: Antimicrobial activity (MIC)
experimental readout: MIC (µg/mL)
Give just the number in µg/mL; leave the unit off.

{"columns": ["smiles code", "unit abbrev", "value"],
 "data": [
  ["CC(C)(C)c1ccc(CC2(Cc3ccc(C(C)(C)C)cc3)C(=O)N(CCCCN)C(=O)N(CCCCN)C2=O)cc1", "µg/mL", 16],
  ["CC(C)(C)c1cc(CC2(Cc3cc(C(C)(C)C)cc(C(C)(C)C)c3)C(=O)N(CCCCNC(=N)N)C(=O)N(CCCCNC(=N)N)C2=O)cc(C(C)(C)C)c1", "µg/mL", 4],
  ["NCCCCN1C(=O)N(CCCCN)C(=O)C(Cc2ccc3ccccc3c2)(Cc2ccc3ccccc3c2)C1=O", "µg/mL", 32]
]}

Entry NCCCCN1C(=O)N(CCCCN)C(=O)C(Cc2ccc(F)c3ccccc23)(Cc2ccc(F)c3ccccc23)C1=O has what MIC? 32

###

# System: S. aureus N315
# assay comment: MIC, multi-resistant clinical isolate
# Assay type: cell-based, Staphylococcus aureus
# test context: RBC EC50 / MIC, S. aureus N315
# Protocol: Working solutions of the test derivatives were prepared with up to 100% DMSO and stored at −20° C. If necessary, the solutions were heated to 40-80° C. before testing to facilitate complete dissolution. Double-distilled water was used in all dilutions prepared. […]
experimental readout: selectivity index (EC50/MIC)

// known answers, use as guide
{"columns": ["smiles code", "tested target", "selectivity index (EC50/MIC)"],
 "data": [
  ["NCCCCN1C(=O)N(CCCCN)C(=O)C(Cc2ccc3ccccc3c2)(Cc2ccc3ccccc3c2)C1=O", "S. aureus N315", "(30)"],
  ["NCCCCN1C(=O)N(CCCCN)C(=O)C(Cc2cc(Br)cc(Br)c2)(Cc2cc(Br)cc(Br)c2)C1=O", "S. aureus N315", "(21)"],
  ["NCCCCN1C(=O)N(CCCCN)C(=O)C(Cc2cc(C(F)(F)F)cc(C(F)(F)F)c2)(Cc2cc(C(F)(F)F)cc(C(F)(F)F)c2)C1=O", "S. aureus N315", "(11)"],
  ["NCCCCN1C(=O)N(CCCCN)C(=O)C(Cc2ccc(F)c3ccccc23)(Cc2ccc(F)c3ccccc23)C1=O", "S. aureus N315", "(20)"]
]}

Reported selectivity index (EC50/MIC) for CC(C)(C)c1ccc(CC2(Cc3ccc(C(C)(C)C)cc3)C(=O)N(CCCCNC(=N)N)C(=O)N(CCCCNC(=N)N)C2=O)cc1 : what is it? (39)

###

# Tested on: E. faecium K36-18
# assay comment: MIC, multi-resistant clinical isolate
# Format: cell-based, Enterococcus faecium
# test context: Enterococcus faecium, K3618, read-out: Antimicrobial activity (MIC)
experimental readout: MIC (µg/mL)
Dear colleague, please return just the value in µg/mL, with no unit written.

{"columns": ["smiles code", "MIC, µg/mL"],
 "data": [
  ["N=C(N)NCCCCN1C(=O)N(CCCCNC(=N)N)C(=O)C(Cc2ccc(F)c3ccccc23)(Cc2ccc(F)c3ccccc23)C1=O", 4],
  ["N=C(N)NCCCCN1C(=O)N(CCCCNC(=N)N)C(=O)C(Cc2cc(Br)cc(Br)c2)(Cc2cc(Br)cc(Br)c2)C1=O", 4],
  ["N=C(N)NCCCCN1C(=O)N(CCCCNC(=N)N)C(=O)C(Cc2ccc3ccccc3c2)(Cc2ccc3ccccc3c2)C1=O", 16],
  ["NCCCCN1C(=O)N(CCCCN)C(=O)C(Cc2ccc3ccccc3c2)(Cc2ccc3ccccc3c2)C1=O", 16]
]}

// fetch E. faecium K36-18 MIC for NCCCCN1C(=O)N(CCCCN)C(=O)C(Cc2ccc(F)c3ccccc23)(Cc2ccc(F)c3ccccc23)C1=O 8

###

# Test system: E. coli 50739822
# assay comment: MIC, multi-resistant clinical isolate
# Format: cell-based, Escherichia coli
# test context: RBC EC50 / MIC

{"columns": ["smiles code", "selectivity index (EC50/MIC)"],
 "data": [
  ["NCCCCN1C(=O)N(CCCCN)C(=O)C(Cc2cc(C(F)(F)F)cc(C(F)(F)F)c2)(Cc2cc(C(F)(F)F)cc(C(F)(F)F)c2)C1=O", "(11)"],
  ["CC(C)(C)c1cc(CC2(Cc3cc(C(C)(C)C)cc(C(C)(C)C)c3)C(=O)N(CCCCN)C(=O)N(CCCCN)C2=O)cc(C(C)(C)C)c1", "(<1)"],
  ["CC(C)(C)c1ccc(CC2(Cc3ccc(C(C)(C)C)cc3)C(=O)N(CCCCNC(=N)N)C(=O)N(CCCCNC(=N)N)C2=O)cc1", "(19)"],
  ["CC(C)(C)c1ccc(CC2(Cc3ccc(C(C)(C)C)cc3)C(=O)N(CCCCN)C(=O)N(CCCCN)C2=O)cc1", "(18)"]
]}

###

# Test system: A. baumanii K47-42
# assay comment: MIC, multi-resistant clinical isolate
# Assay type: cell-based, Acinetobacter baumannii
# test context: Acinetobacter baumannii, K4742, read-out: Antimicrobial activity (MIC)
experimental readout: MIC (µg/mL)
Field: numeric (µg/mL). Do not append units.

Look over these answered cases.
{"columns": ["compound", "unit abbrev", "MIC"],
 "data": [
  ["CC(C)(C)c1cc(CC2(Cc3cc(C(C)(C)C)cc(C(C)(C)C)c3)C(=O)N(CCCCNC(=N)N)C(=O)N(CCCCNC(=N)N)C2=O)cc(C(C)(C)C)c1 [8(iii)]", "µg/mL", 4],
  ["NCCCCN1C(=O)N(CCCCN)C(=O)C(Cc2cc(Br)cc(Br)c2)(Cc2cc(Br)cc(Br)c2)C1=O [7(ii)]", "µg/mL", 16],
  ["N=C(N)NCCCCN1C(=O)N(CCCCNC(=N)N)C(=O)C(Cc2ccc3ccccc3c2)(Cc2ccc3ccccc3c2)C1=O [8(iv)]", "µg/mL", 32]
]}

What does the record list as MIC for NCCCCN1C(=O)N(CCCCN)C(=O)C(Cc2ccc3ccccc3c2)(Cc2ccc3ccccc3c2)C1=O [7(iv)] ? 32

###

# Test system: Staphylococcus aureus ATCC 9144
# assay comment: MIC assay, antibiotic susceptible reference strain
# Format: cell-based
# test context: Staphylococcus aureus, ATCC9144, read-out: Antimicrobial activity (MIC) S. a
experimental readout: MIC

Some solved cases for reference:
{"columns": ["compound", "tested target", "experimental readout", "value"],
 "data": [
  ["NCCCCN1C(=O)N(CCCCN)C(=O)C(Cc2cc(Br)cc(Br)c2)(Cc2cc(Br)cc(Br)c2)C1=O [7(ii)]", "Staphylococcus aureus ATCC 9144", "MIC", "4 µg/mL"],
  ["NCCCCN1C(=O)N(CCCCN)C(=O)C(Cc2ccc(F)c3ccccc23)(Cc2ccc(F)c3ccccc23)C1=O [7(v)]", "Staphylococcus aureus ATCC 9144", "MIC", "4 µg/mL"],
  ["NCCCCN1C(=O)N(CCCCN)C(=O)C(Cc2cc(C(F)(F)F)cc(C(F)(F)F)c2)(Cc2cc(C(F)(F)F)cc(C(F)(F)F)c2)C1=O [7(vi)]", "Staphylococcus aureus ATCC 9144", "MIC", "8 µg/mL"]
]}

Query compound follows.
Suppose we examine the compound CC(C)(C)c1ccc(CC2(Cc3ccc(C(C)(C)C)cc3)C(=O)N(CCCCN)C(=O)N(CCCCN)C2=O)cc1 [Compound 7(i)] ; what MIC value has been reported? 4 µg/mL
